Values from the RNAGym collection of RNA variant scans (doi:10.7554/elife.80360)

B1: Hairpin Ribozyme (parent)
chain: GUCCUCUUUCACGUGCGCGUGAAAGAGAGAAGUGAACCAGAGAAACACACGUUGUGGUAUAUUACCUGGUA

# Variants of: B1
# assay_text: self-cleavage, relative activity (ratio to wild type); higher = more cleavage; co-transcriptional
Returns one of met or not met; met when self-cleavage is >= 0.2.

INSERT INTO results (chain_sequence, assigned_label) VALUES
  ('GUCCUCUUUCACGUGCGCGGGAAAGAGAGAAGUGAACCAGAGAAACACACAUUGUGGUAUAUUACCUGGUA [U20G G51A]', 'met'),
  ('GUCCUCUUUCACGUGCGCGUGAAAGAGAGAAGUGGACCAGAGAAAAACACGUUGUGGUAUAUUACCUGGUA [A35G C46A]', 'not met'),
  ('UUCCUCUUUCACGUGCGCGUGACAGAGAGAAGUGAACCAGAGAAACACACGUUGUGGUAUAUUACCUGGUA [G1U A23C]', 'not met'),
  ('GUCCUCUUUAACGUGCGCGUGAAAGAGAGAAGUGAACCAGAGAAACACACGUUCUGGUAUAUUACCUGGUA [C10A G54C]', 'met');

// query I'd appreciate it if you could say whether GUCCUUUUUCACGUGCGCGUGAAAGAGAGAAGUGAACCAGAGAAACACACGUUGUGUUAUAUUACCUGGUA [C6U G57U] has self-cleavage at least equal to 0.2.
// result met

// query I'd appreciate it if you could say whether GUCCUGUUUCACGUGCGCGUGAAAGAGAGACGUGAACCAGAGAAACACACGUUGUGGUAUAUUACCUGGUA [C6G A31C] has self-cleavage at least equal to 0.2.
// result not met

// query I'd appreciate it if you could say whether GUCCUCGUUCACGUGCGCGUGAAAGAGAGAAGUGAACCAGAGAAACACACGUUGUGGUAUAUUACCUGGGA [U7G U70G] has self-cleavage at least equal to 0.2.
// result met

// query I'd appreciate it if you could say whether GUCCUCUUUCACGUGCGCGUGAAAGAGAGAAGUGAACCAGAGAAACUCACGUUGUGGUGUAUUACCUGGUA [A47U A59G] has self-cleavage at least equal to 0.2.
// result not met

// query I'd appreciate it if you could say whether GUUCUCUUUCACGUGCGCGUGAAAGAGAGAAGUGAACCAGAGAAAUACACGUUGUGGUAUAUUACCUGGUA [C3U C46U] has self-cleavage at least equal to 0.2.
// result not met

// query I'd appreciate it if you could say whether GUCCUCUUUCACGUGCGCGUGAAAGAAAGAAGUGAACCAGCGAAACACACGUUGUGGUAUAUUACCUGGUA [G27A A41C] has self-cleavage at least equal to 0.2.
// result met

// query I'd appreciate it if you could say whether GUCCUCUUUCACGUGCGCGUGAAAGAGAGAAGUGAACCAGAGAAACACACGUUGGGGUAUAUUACCUGUUA [U55G G69U] has self-cleavage at least equal to 0.2.
// result met
